Biological target: Fc-fusion protein receptor ectodomain of BMPR-IB
Test: ratio of Biacore KDs, BMPR-IA as reference; measurement 2
measure: fold higher IB affinity over IA, KD(IA): KD(IB) (fold)

1 = recombinant human GDF-5 mutant I449V (ligand) APLATRQGKRPSKNLKARCSRKALHVNFKDMGWDDWIIAPLEYEAFHCEGLCEFPLRSHLEPTNHAVVQTLMNSMDPESTPPTCCVPTRLSPISILFIDSANNVVYKQYEDMVVESCGCR
2 = human GDF-5 mutant M412V (ligand) APLATRQGKRPSKNLKARCSRKALHVNFKDVGWDDWIIAPLEYEAFHCEGLCEFPLRSHLEPTNHAVIQTLMNSMDPESTPPTCCVPTRLSPISILFIDSANNVVYKQYEDMVVESCGCR
# returns the entry with the larger fold higher IB affinity over IA, KD(IA): KD(IB); inputs 1 and 2 Answer by stating the label of the chosen item.
2
(2: 333 fold, 1: 219 fold)
